molecular target: T1, His-tagged huCB1-ND (human CB1 in nanodisc) (human); experiment: flow cytometry, yeast-displayed IgG, binding/display ratio
T1 construct: CB1 construct of Cell 167(3) (2016) 750-762 expressed in Sf9 cells; POPC:MSP1D1:CB1 480:8:1; also called CB1-nanodisc; huCB1-Nanodisc; not shown: histidine purification tag
T1 sequence (P21554 99-414): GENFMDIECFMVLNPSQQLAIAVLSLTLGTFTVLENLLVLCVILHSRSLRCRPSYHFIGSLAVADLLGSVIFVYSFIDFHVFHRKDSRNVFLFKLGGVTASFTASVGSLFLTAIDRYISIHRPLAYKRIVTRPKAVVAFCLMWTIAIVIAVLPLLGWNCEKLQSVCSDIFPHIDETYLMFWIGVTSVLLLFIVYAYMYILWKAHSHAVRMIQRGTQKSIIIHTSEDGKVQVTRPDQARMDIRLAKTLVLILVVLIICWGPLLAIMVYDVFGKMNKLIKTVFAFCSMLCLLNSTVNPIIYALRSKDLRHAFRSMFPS
READOUT: relative binding to 0.2 nM huCB1-ND (relative to 10D10N35Y) (fold)
Use fold as the unit, but write only the number.

binder LIBC523760-1 (antibody, V domains shown) VH: QVQLQESGPGLVKPSQTLSLTCTVSGGSIRRGGDYWSWIRQHPGKGLEWIGHVYQTGSTKYNPKFKGRATISVNTYKNQFSLKLSSVTAADTAVYYCARDYDILTGYSYYYYGMDVWGQGTTVTVSS VL: DIVMTQSPLSLPVTPGEPASISCRSSQSLLTSSGANYVDWYLQKPGQSPQLLIYLGSNRASGVPDRFSGSGSGTDFTLKISRVEAEDVGVYYCRQAVGTPRTFGQGTKVEIKR , relative binding to 0.2 nM huCB1-ND (relative to 10D10N35Y) observed: 4.19

binder LIBC523670-1 (antibody, V domains shown, also called LIBC523670-1 + VK2 germline fix) VH: QVQLQESGPGLVKPSQTLSLTCTVSGGSIRRGGDYWAWIRQHPGKGLEWIGHVYQTGQTAYNPNLESRATISVNTYKNQFSLKLSSVTAADTAVYYCARNYDVLSGYSYYYYGMDVWGQGTTVTVSS VL: DIVMTQSPLSLPVTPGEPASISCRSSQSLLTSYGANYLDWYLQKPGQSPQLLIYQGSNRASGVPDRFSGSGSGTDFTLKISRVEAEDVGVYYCMQALQIPRTFGQGTKVEIKR , relative binding to 0.2 nM huCB1-ND (relative to 10D10N35Y) observed: 7.46

binder LIBC523661-1 (antibody, IgG1, V domains shown) VH: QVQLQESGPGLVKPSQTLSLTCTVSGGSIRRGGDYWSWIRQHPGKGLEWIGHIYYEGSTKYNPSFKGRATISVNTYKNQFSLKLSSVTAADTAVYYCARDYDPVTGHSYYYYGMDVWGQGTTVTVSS VL: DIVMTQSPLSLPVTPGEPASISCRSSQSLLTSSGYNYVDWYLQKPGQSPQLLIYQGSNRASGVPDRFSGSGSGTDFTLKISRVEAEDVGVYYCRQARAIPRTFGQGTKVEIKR , relative binding to 0.2 nM huCB1-ND (relative to 10D10N35Y) observed: 4.03
